From: the Immune Epitope Database (IEDB)

assay.target: HLA-A*02:01
assay.text: IEDB peptide-MHC binding, purified MHC/competitive/radioactivity; filed as Kd, often an IC50 or EC50 that approximates it; bounds were set here for any values at or beyond the usual limits of such assays
assay.setup: source organism: Triticum aestivum
reported.endpoint: pKd
Answers are plain numbers, as −log10 of the molar value.

Reading of pKd for SQVSFQQPL with HLA-A*02:01: 6.59

---

assay.target: HLA-A*33:01
assay.text: IEDB peptide-MHC binding, purified MHC/competitive/radioactivity; filed as Kd, often an IC50 or EC50 that approximates it; bounds were set here for any values at or beyond the usual limits of such assays
assay.setup: source organism: Dengue virus 4 Dominica/814669/1981
reported.endpoint: Kd (nM)
Numbers only, in nM.

Sample VFLRKLTSR ; Kd observed: 178

---

assay.target: HLA-A*30:01
assay.text: IEDB peptide-MHC binding, purified MHC/competitive/fluorescence; filed as Kd, often an IC50 or EC50 that approximates it; bounds were set here for any values at or beyond the usual limits of such assays
assay.setup: source organism: Escherichia coli O157:H7 str. EDL933
reported.endpoint: Kd

Sample YQAFRTKVH ; Kd observed: ≥ 20 µM

---

For each of the sequences below, state its Kd.
assay.target: HLA-A*33:01
assay.text: IEDB peptide-MHC binding, purified MHC/competitive/radioactivity; filed as Kd, often an IC50 or EC50 that approximates it; bounds were set here for any values at or beyond the usual limits of such assays
assay.setup: source organism: Lymphocytic choriomeningitis virus (strain Armstrong)
Give bare numbers, in µM.

For orientation, consider the following solved cases.
{"seq.string": "GNFSWFPHK", "Kd [µM]": 6.31}
{"seq.string": "SYQYLIIQNR", "Kd [µM]": 0.0543}
{"seq.string": "LMRFITAETH", "Kd [µM]": 5.45}

With those in mind, consider the next sequence.
Sample TYLGPLSCK ; Kd observed: 0.154

---

assay.target: HLA-B*08:01
assay.text: IEDB peptide-MHC binding, purified MHC/competitive/fluorescence; filed as Kd, often an IC50 or EC50 that approximates it; bounds were set here for any values at or beyond the usual limits of such assays
assay.setup: source organism: Entamoeba histolytica HM-1:IMSS
reported.endpoint: Kd

Sample NPAACSYMV ; Kd observed: ≥ 5 µM

---

For each of the sequences below, state its pKd.
assay.target: HLA-B*51:01
assay.text: IEDB peptide-MHC binding, purified MHC/competitive/fluorescence; filed as Kd, often an IC50 or EC50 that approximates it; bounds were set here for any values at or beyond the usual limits of such assays
assay.setup: source organism: Orthohantavirus andesense
pKd: −log10 of the molar value.

{"seq.string": "EVLKAMSLY", "reported.value": "≤ 4.70"}

With those in mind, consider the next sequence.
Sample DWMDRIEEF ; pKd observed: ≤ 4.70

---

assay.target: HLA-B*83:01
assay.text: IEDB peptide-MHC binding, purified MHC/competitive/fluorescence; filed as Kd, often an IC50 or EC50 that approximates it; bounds were set here for any values at or beyond the usual limits of such assays
assay.setup: source organism: Mycobacterium tuberculosis C
reported.endpoint: Kd (nM)
Numbers only, in nM.

Sample YPRNGWPAL ; Kd observed: 34.9

---

assay.target: HLA-A*24:02
assay.text: IEDB peptide-MHC binding, purified MHC/competitive/radioactivity; filed as Kd, often an IC50 or EC50 that approximates it; bounds were set here for any values at or beyond the usual limits of such assays
assay.setup: source organism: Triticum aestivum
reported.endpoint: Kd (nM)
Numbers only, in nM.

Sample QFPGQQQPF ; Kd observed: 676

---

For each of the sequences below, state its Kd.
assay.target: HLA-B*45:01
assay.text: IEDB peptide-MHC binding, purified MHC/competitive/radioactivity; filed as Kd, often an IC50 or EC50 that approximates it; bounds were set here for any values at or beyond the usual limits of such assays
assay.setup: source organism: Mammarenavirus machupoense
Give bare numbers, in µM.

{"seq.string": "PEIWLQLNTL", "measurement.units": "µM", "reported.value": 12.2}

With those in mind, consider the next sequence.
Reading of Kd for RECYVQRFYL with HLA-B*45:01: 1.56

---

assay.target: HLA-B*40:02
assay.text: IEDB peptide-MHC binding, purified MHC/competitive/radioactivity; filed as Kd, often an IC50 or EC50 that approximates it; bounds were set here for any values at or beyond the usual limits of such assays
assay.setup: source organism: Mammarenavirus brazilense
reported.endpoint: Kd (µM)
One number for each entry, in µM.

Sample PDFNELFQL ; Kd observed: 1.68

---

assay.target: HLA-A*01:01
assay.text: IEDB peptide-MHC binding, purified MHC/competitive/fluorescence; filed as Kd, often an IC50 or EC50 that approximates it; bounds were set here for any values at or beyond the usual limits of such assays
assay.setup: source organism: Human immunodeficiency virus 1
reported.endpoint: Kd

Sample VLYCVHQEI ; Kd observed: ≥ 20 µM

---

assay.target: HLA-B*48:01
assay.text: IEDB peptide-MHC binding, purified MHC/direct/fluorescence; filed as Kd, often an IC50 or EC50 that approximates it; bounds were set here for any values at or beyond the usual limits of such assays
assay.setup: source organism: Ebola virus - Gabon (1994-1997)
reported.endpoint: Kd

Sample QLSLKMLSL ; Kd observed: ≥ 20 µM

---

assay.target: HLA-A*03:01
assay.text: IEDB peptide-MHC binding, purified MHC/competitive/fluorescence; filed as Kd, often an IC50 or EC50 that approximates it; bounds were set here for any values at or beyond the usual limits of such assays
assay.setup: source organism: Yersinia mollaretii ATCC 43969
pKd: −log10 of the molar value.
reported.endpoint: pKd

Sample DEQEFFYSQ ; pKd observed: ≤ 4.70

---

assay.target: HLA-A*68:02
assay.text: IEDB peptide-MHC binding, purified MHC/competitive/radioactivity; filed as Kd, often an IC50 or EC50 that approximates it; bounds were set here for any values at or beyond the usual limits of such assays
assay.setup: source organism: Dengue virus 4 Philippines/H241/1956
reported.endpoint: pKd
Give bare numbers, as −log10 of the molar value.

{"seq.string": "MTAGIFLFFM", "pKd": 7.98}

With those in mind, consider the next sequence.
Sample TVFFVLMML ; pKd observed: 7.44

---

assay.target: HLA-B*27:05
assay.text: IEDB peptide-MHC binding, purified MHC/direct/fluorescence; filed as Kd, often an IC50 or EC50 that approximates it; bounds were set here for any values at or beyond the usual limits of such assays
assay.setup: source organism: Mycobacterium tuberculosis variant bovis BCG str. Pasteur 1173P2
reported.endpoint: Kd

Sample HPTSRRELL ; Kd observed: ≥ 20 µM

---

assay.target: HLA-A*03:01
assay.text: IEDB peptide-MHC binding, purified MHC/competitive/fluorescence; filed as Kd, often an IC50 or EC50 that approximates it; bounds were set here for any values at or beyond the usual limits of such assays
assay.setup: source organism: Cryptococcus neoformans var. neoformans B-3501A
reported.endpoint: Kd

Reading of Kd for AIDDFCLFA with HLA-A*03:01: ≥ 20 µM

---

assay.target: HLA-A*02:06
assay.text: IEDB peptide-MHC binding, purified MHC/competitive/radioactivity; filed as Kd, often an IC50 or EC50 that approximates it; bounds were set here for any values at or beyond the usual limits of such assays
assay.setup: source organism: Lassa virus Josiah
reported.endpoint: pKd
One number for each entry, as −log10 of the molar value.

Sample LIALSVLAV ; pKd observed: 6.47

---

assay.target: HLA-A*03:01
assay.text: IEDB peptide-MHC binding, purified MHC/direct/fluorescence; filed as Kd, often an IC50 or EC50 that approximates it; bounds were set here for any values at or beyond the usual limits of such assays
assay.setup: source organism: Listeria monocytogenes serotype 4b str. H7858
pKd: −log10 of the molar value.
reported.endpoint: pKd

Sample AALEGLSGF ; pKd observed: ≤ 4.70

---

assay.target: HLA-A*01:01
assay.text: IEDB peptide-MHC binding, purified MHC/direct/fluorescence; filed as Kd, often an IC50 or EC50 that approximates it; bounds were set here for any values at or beyond the usual limits of such assays
assay.setup: source organism: Zaire ebolavirus
pKd: −log10 of the molar value.
reported.endpoint: pKd

Reading of pKd for TTEANAGQF with HLA-A*01:01: ≤ 4.70

---

assay.target: HLA-A*03:01
assay.text: IEDB peptide-MHC binding, purified MHC/direct/fluorescence; filed as Kd, often an IC50 or EC50 that approximates it; bounds were set here for any values at or beyond the usual limits of such assays
assay.setup: source organism: Influenza A virus (A/quail/Hong Kong/FY298/00(H9N2))
pKd: −log10 of the molar value.
reported.endpoint: pKd

Reading of pKd for TKDAERGKL with HLA-A*03:01: ≤ 4.70

---

assay.target: HLA-A*26:01
assay.text: IEDB peptide-MHC binding, purified MHC/direct/fluorescence; filed as Kd, often an IC50 or EC50 that approximates it; bounds were set here for any values at or beyond the usual limits of such assays
assay.setup: source organism: Collimonas fungivorans
reported.endpoint: Kd

Sample AYSPFAFKK ; Kd observed: ≥ 20 µM
